- METHOD NOTES: Selectivity index, ratio of CC50 for porcine PEK cells assessed as reduction in cell viability after 24 hrs by microscopic method to EC50 for TBEV Absettarov infected in porcine PEK cells assessed as plaque reduction preincubated for 1 hr followed by overlaying with 1.26% methylcellulose and measured after 6 days by gentian violet staining-based assay
- Assay type: toxicity
- EXPERIMENTAL CONTEXT: pig, read-out: Ratio CC50/EC50
QUANTITY NAME: selectivity ratio at 24 h

(Q) selectivity ratio at 24 h for O=C(O)c1ccc(-c2ccc3c4cccc5cccc(c6cccc2c63)c54)s1 ?
(A) > 30000

----------
- METHOD NOTES: Cytotoxicity against porcine PEK cells assessed as reduction in cell viability after 7 days by microscopic method
- Format: cell-based, Sus scrofa
- EXPERIMENTAL CONTEXT: pig
Measured CC50 at 168 h of individual entries

See these solved cases before continuing.
smiles_repr=O=C(O)c1ccc(-c2ccc3c4cccc5cccc(c6cccc2c63)c54)s1 quantity_name="CC50 at 168 h" val="26 µM"
smiles_repr=O=C(c1ccc(-c2ccc3c4cccc5cccc(c6cccc2c63)c54)s1)N(CCO)CCO quantity_name="CC50 at 168 h" val="> 70 µM"
smiles_repr=O=C(NCCCCO)c1ccc(-c2ccc3c4cccc5cccc(c6cccc2c63)c54)s1 quantity_name="CC50 at 168 h" val="> 70 µM"
smiles_repr=O=C(O)c1ccc2c3cccc4cccc(c5cccc1c52)c43 quantity_name="CC50 at 168 h" val="37 µM"
smiles_repr=CO[C@@H]1[C@H](O)[C@@H](CO)O[C@H]1n1cc(C#Cc2ccc3c4cccc5cccc(c6cccc2c63)c54)c(=O)[nH]c1=O quantity_name="CC50 at 168 h" val="38 µM"
smiles_repr=OC[C@H]1O[C@@H](n2cnc3c(NCc4c5ccccc5cc5ccccc45)ncnc32)[C@H](O)[C@@H]1O quantity_name="CC50 at 168 h" val="> 50 µM"
smiles_repr=O=c1[nH]c(=O)n([C@@H]2O[C@H](CO)[C@@H](O)[C@H]2O)cc1C#Cc1ccc2c3cccc4cccc(c5cccc1c52)c43 quantity_name="CC50 at 168 h" val="> 100 µM"
smiles_repr=CC(=O)Nc1ccc(C#Cc2ccc3c4cccc5cccc(c6cccc2c63)c54)cc1 quantity_name="CC50 at 168 h" val="> 100 µM"

(Q) CC50 at 168 h for CN(C)c1ccc(C#Cc2ccc3c4cccc5cccc(c6cccc2c63)c54)cc1 ?
(A) > 100 µM
